Kapp values for the compounds below.
SYSTEM_NAME: Coagulation factor X (Homo sapiens)
PROCEDURE_DETAILS: Binding affinity to F10a

{"COMPOUND": "CC(C)N1CCC(COC[C@H](NC(=O)c2ccc3cc[nH]c3c2)c2ccccc2)CC1", "Kapp": "35 10^6L/mol"}
{"COMPOUND": "CC(C)N1CCC(CNC[C@H](NC(=O)c2ccc3c(Cl)c[nH]c3c2)c2ccccc2)CC1", "Kapp": "1200 10^6L/mol"}
{"COMPOUND": "CC(C)N1CCC(COCC(NC(=O)c2ccc3c(Cl)c[nH]c3c2)c2ccccc2F)CC1 (stereo not given)", "Kapp": "650 10^6L/mol"}
{"COMPOUND": "Cc1c[nH]c2cc(C(=O)N[C@@H](COCC3CCN(C(C)C)CC3)c3ccccc3)ccc12", "Kapp": "160 10^6L/mol"}
{"COMPOUND": "CCCC[C@H](COCC1CCN(C(C)C)CC1)NC(=O)c1ccc2c(Cl)c[nH]c2c1", "Kapp": "41 10^6L/mol"}
{"COMPOUND": "CC(C)N1CCC(COC[C@H](NC(=O)c2ccc3c(Cl)c[nH]c3c2)c2ccccc2)CC1", "Kapp": "1700 10^6L/mol"}
{"COMPOUND": "O=C(NC(COCC1CCN(c2ccncc2)CC1)c1ccccc1Cl)c1ccc2c(Cl)c[nH]c2c1 (stereo not given)", "Kapp": "1300 10^6L/mol"}
{"COMPOUND": "CC(C)N1CCC(CCCC(NC(=O)c2ccc3c(Cl)c[nH]c3c2)c2ccccc2)CC1 (stereo not given)", "Kapp": "700 10^6L/mol"}
{"COMPOUND": "CC(C)N1CCC(CN(C)C[C@H](NC(=O)c2ccc3c(Cl)c[nH]c3c2)c2ccccc2)CC1", "Kapp": "60 10^6L/mol"}
{"COMPOUND": "COc1ccc(C(=O)N[C@@H](COCC2CCN(C(C)C)CC2)c2ccccc2)cc1", "Kapp": "3 10^6L/mol"}
{"COMPOUND": "CC(C)N1CCC(COCC(NC(=O)c2ccc3c(Cl)c[nH]c3c2)c2ccccc2Cl)CC1 (stereo not given)", "Kapp": "850 10^6L/mol"}
{"COMPOUND": "CN1CCC(COCC(NC(=O)c2ccc3c(Cl)c[nH]c3c2)c2ccccc2Cl)CC1 (stereo not given)", "Kapp": "65 10^6L/mol"}
{"COMPOUND": "CC(C)[C@H](COCC1CCN(C(C)C)CC1)NC(=O)c1ccc2c(Cl)c[nH]c2c1", "Kapp": "14 10^6L/mol"}
{"COMPOUND": "CCN1CCC(COCC(NC(=O)c2ccc3c(Cl)c[nH]c3c2)c2ccccc2Cl)CC1 (stereo not given)", "Kapp": "150 10^6L/mol"}
{"COMPOUND": "CC(C)N1CCC(CNC(=O)[C@H](NC(=O)c2ccc3c(Cl)c[nH]c3c2)c2ccccc2)CC1", "Kapp": "460 10^6L/mol"}
